Numbers sourced from paper PMC9340783.

# test_target: human GITR on 293F‐hGITR cells (Homo sapiens (Human)., UniProt Q9Y5U5-1)
# Sequence (Q9Y5U5 26-241): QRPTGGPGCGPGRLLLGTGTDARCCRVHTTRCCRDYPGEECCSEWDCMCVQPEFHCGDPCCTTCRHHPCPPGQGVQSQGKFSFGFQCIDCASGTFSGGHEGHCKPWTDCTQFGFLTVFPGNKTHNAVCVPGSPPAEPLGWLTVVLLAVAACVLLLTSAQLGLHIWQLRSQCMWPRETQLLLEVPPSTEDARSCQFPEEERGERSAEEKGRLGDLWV
# measurement_notes: cell-based or functional assay
Here, each record is paired with measured NF‐ĸB luciferase reporter assay, Crosslinking, EC50 data.
State just the number; it will be interpreted in nM.

// below: answered binders
* Tab9H6v3 (antibody, V domains shown, heavy chain variable region of clone 9H6v3 (AMGEN INC.); light chain variable region of clone 9H6v3 (AMGEN INC.)) VH: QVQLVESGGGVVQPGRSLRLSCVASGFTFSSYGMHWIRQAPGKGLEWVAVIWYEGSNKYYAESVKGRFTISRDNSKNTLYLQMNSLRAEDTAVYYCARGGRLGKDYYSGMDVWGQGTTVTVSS VL: DIQMTQSPSSLSASVGDRVTITCRASQGIRNDLGWYQQKPGKAPKRLIYATSSLQSGVPSRFSGSGSGTEFTLTISSLQPEDFATYYCLQHNTYPWTFGQGTKVEIK | 8.86
* hab076e1 (antibody, V domains shown, as the VH of m15 (3503‐hab076‐VH); 3503‐hab076‐Vk(C2Y); the substitution is against the VL of m15 (Cys in FR3 of VL); position not given; Whole antibody, human IgG1 heavy chain constant region, human kappa light chain constant region; source: FreeStyle 293F, transiently co-transfected, purified from culture supernatant) VH: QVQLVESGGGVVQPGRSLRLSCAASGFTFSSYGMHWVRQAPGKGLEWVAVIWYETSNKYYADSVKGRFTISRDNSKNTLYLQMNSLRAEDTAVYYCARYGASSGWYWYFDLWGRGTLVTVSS VL: DIQLTQSPSFLSASVGDRVTITCRASQGISSYLAWYQQKPGKAPKLLIYAASTLQSGVPSRFSGSGSGTEFTLTISSLQPEDFATYYCQQLNSYPFTFGQGTKLEIK | 5.16

# next binder below
Suppose we examine the binder hab064 (antibody, V domains shown, 3503‐hab064‐VH; 3503‐hab064‐Vk; Whole antibody, human IgG1 heavy chain constant region, human kappa light chain constant region; source: FreeStyle 293F, transiently co-transfected, purified from culture supernatant) VH: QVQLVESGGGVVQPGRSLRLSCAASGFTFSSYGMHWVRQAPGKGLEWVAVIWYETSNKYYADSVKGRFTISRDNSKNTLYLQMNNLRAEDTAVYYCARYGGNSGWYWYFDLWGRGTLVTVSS VL: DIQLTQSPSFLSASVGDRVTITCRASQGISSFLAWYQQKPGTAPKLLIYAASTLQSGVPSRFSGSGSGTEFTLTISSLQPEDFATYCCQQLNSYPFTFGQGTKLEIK ; what NF‐ĸB luciferase reporter assay, Crosslinking, EC50 value has been reported?
7.13
